Each recorded value in this set is attributed to patent US20240391926A1.

experimental_target: Kv1.3 potassium channel (Homo sapiens)
assay_summary: Kv1.3 potassium channel blocker activity, automated whole-cell patch clamp (Patchliner) in CHO-K1 cells stably expressing Kv1.3
experimental_conditions: 30 nM-100 μM
Quick reference: IC50 of the listed items.

O=C([C@@H]1CC[C@](O)(CO)C1)N1CC[C@]2(C1)C(=O)Nc1cc(Cl)c(Cl)cc12 (single isomer, unassigned; isomer 2)    < 3000 nM
O=C([C@H]1CCCNC1)N1CC[C@]2(C1)C(=O)Nc1cc(Cl)c(Cl)cc12    < 1000 nM
O=C([C@@H](O)CO)N1CC[C@]2(C1)C(=O)Nc1cc(Cl)c(Cl)cc12    < 1000 nM

Query block: Item N[C@@H](CO)C(=O)N1CC[C@]2(C1)C(=O)Nc1cc(Cl)c(Cl)cc12 : provide IC50
Result block: < 1000 nM

Query block: Item O=C(CO)N1CC[C@@]2(C1)C(=O)Nc1c2cc(Cl)c(Cl)c1Cl : provide IC50
Result block: < 3000 nM

Query block: Item C[C@H]1C[C@]2(CN1C(=O)CO)C(=O)Nc1cc(Cl)c(Cl)cc12 (single isomer, unassigned; isomer 1) : provide IC50
Result block: < 30000 nM

Query block: Item O=C([C@@H]1C[C@H]1CO)N1CC[C@]2(C1)C(=O)Nc1cc(Cl)c(Cl)cc12 (relative stereo) : provide IC50
Result block: < 1000 nM

---

experimental_target: Kv1.3 potassium channel (Homo sapiens, UniProt P22001)
Sequence (P22001 whole entry): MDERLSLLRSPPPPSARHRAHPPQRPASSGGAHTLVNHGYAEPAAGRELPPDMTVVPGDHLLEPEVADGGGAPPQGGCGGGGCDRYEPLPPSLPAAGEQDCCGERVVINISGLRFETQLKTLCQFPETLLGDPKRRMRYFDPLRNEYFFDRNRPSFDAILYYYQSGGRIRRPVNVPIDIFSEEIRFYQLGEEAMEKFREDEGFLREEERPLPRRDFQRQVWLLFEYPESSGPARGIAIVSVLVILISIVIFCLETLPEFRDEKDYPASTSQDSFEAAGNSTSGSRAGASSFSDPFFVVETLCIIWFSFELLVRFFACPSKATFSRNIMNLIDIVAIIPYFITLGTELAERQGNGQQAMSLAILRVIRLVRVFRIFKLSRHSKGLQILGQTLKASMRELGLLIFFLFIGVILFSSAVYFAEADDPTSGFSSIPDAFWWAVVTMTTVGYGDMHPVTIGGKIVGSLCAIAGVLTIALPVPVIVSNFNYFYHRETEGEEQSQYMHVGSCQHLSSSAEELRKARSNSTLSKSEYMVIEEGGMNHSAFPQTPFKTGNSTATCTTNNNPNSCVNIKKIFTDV
assay_summary: Kv1.3 potassium channel blocker activity, automated whole-cell patch clamp (Patchliner) in CHO-K1 cells stably expressing Kv1.3
experimental_conditions: 30 nM-100 μM
pIC50: −log10 of the molar value.
quantity: pIC50

Record excerpt, results attached:
O=C([C@H]1CNCCO1)N1CC[C@]2(C1)C(=O)Nc1cc(Cl)c(Cl)cc12 [Compound 10]    > 6.00
O=C(C1C[C@@H](O)[C@H](O)C1)N1CC[C@]2(C1)C(=O)Nc1cc(Cl)c(Cl)cc12 (single isomer, unassigned; isomer 1) [Compound 105]    > 6.52
O=C([C@H]1CC[C@H](CO)C1)N1CC[C@]2(C1)C(=O)Nc1cc(Cl)c(Cl)cc12 (relative stereo) [Compound 99]    > 5.52
O=C([C@@H]1CC[C@H](O)C1)N1CC[C@]2(C1)C(=O)Nc1cc(Cl)c(Cl)cc12 (single isomer, unassigned; isomer 4) [Compound 66]    > 5.52
O=C(CCO)N1CC[C@]2(C1)C(=O)Nc1cc(Cl)c(Cl)cc12 [Compound 156]    > 6.00

Query block: Item Nc1[nH]ncc1C(=O)N1CC[C@]2(C1)C(=O)Nc1cc(Cl)c(Cl)cc12 [Compound 70] : provide pIC50
Result block: > 5.52

Query block: Item CC(C)[C@H](N)C(=O)N1CC[C@]2(C1)C(=O)Nc1cc(Cl)c(Cl)cc12 [Compound 47] : provide pIC50
Result block: > 5.52

Query block: Item Cc1cc2c(cc1Cl)[C@]1(CCN(C(=O)CO)C1)C(=O)N2 [Compound 120] : provide pIC50
Result block: > 5.52

---

experimental_target: Kv1.3 potassium channel (Homo sapiens)
assay_summary: Kv1.3 potassium channel blocker activity, automated whole-cell patch clamp (Patchliner) in CHO-K1 cells stably expressing Kv1.3
experimental_conditions: 30 nM-100 μM
pIC50: −log10 of the molar value.
quantity: pIC50

Record excerpt, results attached:
O=C([C@@H]1CC[C@@H](O)[C@H](O)C1)N1CC[C@]2(C1)C(=O)Nc1cc(Cl)c(Cl)cc12 (single isomer, unassigned; isomer 2)    > 6.52
O=C(C[C@H]1CCNC1)N1CC[C@]2(C1)C(=O)Nc1cc(Cl)c(Cl)cc12    > 6.52
C[C@@H](O)C(=O)N1CC[C@]2(C1)C(=O)Nc1cc(Cl)c(Cl)cc12    > 6.00
O=C(CO)N1CC[C@]2(C1)C(=O)Nc1cc(Cl)c(Br)cc12    > 6.00

# ---- query compound ----
Query block: Item NCC(=O)N1CC[C@]2(C1)C(=O)Nc1cc(Cl)c(Cl)cc12 : provide pIC50
Result block: > 6.00
